Consider the following molecules; for each one, report its pIC50.
Test system: P388
Experiment: Concentration of the drug to inhibit wild type P388 murine leukemia cell growth in culture
Type: functional, cell-based
Settings: Mus musculus
For clarity, pIC50 is expressed as the negative log10 of concentration in mol/L.

Name the recorded pIC50 for CN1CCN(c2ccc3[nH]c(-c4ccc5[nH]c(Cc6ccc(N(CCCl)CCCl)cc6)nc5c4)nc3c2)CC1 .
6.07

Name the recorded pIC50 for CN1CCN(c2ccc3[nH]c(-c4ccc5[nH]c(-c6ccc(O)cc6)nc5c4)nc3c2)CC1 .
5.92

Name the recorded pIC50 for CN1CCN(c2ccc3[nH]c(-c4ccc5[nH]c(-c6ccc(N(CCCl)CCCl)cc6)nc5c4)nc3c2)CC1 .
6.10

Name the recorded pIC50 for CCN(CC)c1ccc(-c2nc3cc(-c4nc5cc(N6CCN(C)CC6)ccc5[nH]4)ccc3[nH]2)cc1 .
5.92
